Entry source: ChEMBL document CHEMBL5113476

# measured on: Receptor-interacting serine/threonine-protein kinase 2 (Homo sapiens)
# Sequence (O43353 whole entry): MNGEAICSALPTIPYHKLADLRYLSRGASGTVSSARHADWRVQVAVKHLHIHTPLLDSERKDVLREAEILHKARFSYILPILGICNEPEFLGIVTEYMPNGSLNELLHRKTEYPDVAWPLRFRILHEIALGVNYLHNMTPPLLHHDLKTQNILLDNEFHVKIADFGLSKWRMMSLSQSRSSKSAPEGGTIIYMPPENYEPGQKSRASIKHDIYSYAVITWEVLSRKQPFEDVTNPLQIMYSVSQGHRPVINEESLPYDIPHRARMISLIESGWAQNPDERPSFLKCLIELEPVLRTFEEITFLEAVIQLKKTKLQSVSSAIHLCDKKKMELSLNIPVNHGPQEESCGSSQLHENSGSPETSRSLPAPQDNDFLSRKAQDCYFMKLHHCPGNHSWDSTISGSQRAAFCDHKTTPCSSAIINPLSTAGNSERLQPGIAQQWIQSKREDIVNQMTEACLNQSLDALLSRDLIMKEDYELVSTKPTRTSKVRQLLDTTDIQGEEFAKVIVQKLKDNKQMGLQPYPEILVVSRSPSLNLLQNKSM
# assay text: Binding affinity to recombinant RIPK2 (unknown origin) measured by surface plasmon resonance analysis
reported property: Kd

Input line: For COC1=CC(=O)C(CC=C(C)C)(CC=C(C)C)C(=O)/C1=C(O)/C=C/c1ccccc1 , what is its reported Kd?
Output line: 5.36 µM

----------
# measured on: Receptor-interacting serine/threonine-protein kinase 2 (Homo sapiens)
# assay text: Binding affinity to recombinant RIPK2 (unknown origin) measured by microscale thermophoresis (MST) assay
reported property: Kd (nM)
State just the number; it will be interpreted in nM.

Input line: Tell me the measured Kd of COC1=CC(=O)C(CC=C(C)C)(CC=C(C)C)C(=O)/C1=C(O)/C=C/c1ccccc1 , please.
Output line: 1000
